Data origin: the kinase profiling compilation of Christmann-Franck et al. (2016)

study target: DDR2 (human) (UniProt Q16832)
Sequence (Q16832 whole entry, looked up): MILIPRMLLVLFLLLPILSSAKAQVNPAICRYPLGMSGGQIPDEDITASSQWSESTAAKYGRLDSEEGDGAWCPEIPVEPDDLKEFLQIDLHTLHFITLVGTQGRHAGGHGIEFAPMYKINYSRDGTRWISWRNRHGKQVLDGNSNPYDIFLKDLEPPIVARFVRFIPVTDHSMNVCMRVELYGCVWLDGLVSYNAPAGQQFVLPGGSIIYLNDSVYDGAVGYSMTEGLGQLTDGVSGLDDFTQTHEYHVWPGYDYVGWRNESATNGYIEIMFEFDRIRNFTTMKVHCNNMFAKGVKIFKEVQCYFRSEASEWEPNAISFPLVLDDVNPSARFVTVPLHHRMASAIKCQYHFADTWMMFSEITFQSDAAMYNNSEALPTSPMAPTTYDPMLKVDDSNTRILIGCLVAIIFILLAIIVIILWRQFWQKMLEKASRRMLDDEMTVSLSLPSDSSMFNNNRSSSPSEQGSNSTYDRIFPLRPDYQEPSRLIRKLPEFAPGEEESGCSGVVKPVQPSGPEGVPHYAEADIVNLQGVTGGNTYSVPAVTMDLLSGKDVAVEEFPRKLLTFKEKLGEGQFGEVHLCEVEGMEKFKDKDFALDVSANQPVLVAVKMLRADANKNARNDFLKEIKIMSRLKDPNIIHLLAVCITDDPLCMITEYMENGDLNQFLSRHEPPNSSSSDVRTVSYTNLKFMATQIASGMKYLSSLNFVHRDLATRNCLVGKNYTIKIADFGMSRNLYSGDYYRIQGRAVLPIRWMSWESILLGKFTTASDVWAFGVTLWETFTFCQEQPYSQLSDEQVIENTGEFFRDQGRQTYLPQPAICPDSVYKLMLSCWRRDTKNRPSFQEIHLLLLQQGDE
method notes: KINOMEscan competition binding
experimental context: compound 1.0 µM
outcome measure: kinase still bound, per cent of control (%)
Just the number in %, nothing appended.

                               input_smiles                          outcome_measure  value_measured
0  CN(C)C/C=C/C(=O)Nc1cccc(C(=O)Nc2ccc(Nc3nccc(-c4cccnc4)n3)cc2)c1  kinase still bound, per cent of control              53

# get_value(readout= kinase still bound, per cent of control, system= DDR2 (human) (UniProt Q16832)) for CN(C)C/C=C/C(=O)Nc1cccc(C(=O)Nc2ccc(Nc3nccc(-c4c(-c5ccccc5)nn5ccccc45)n3)cc2)c1
9

# get_value(readout= kinase still bound, per cent of control, system= DDR2 (human) (UniProt Q16832)) for Cc1cc(NC(=O)c2cccc(NC(=O)/C=C/CN(C)C)c2)ccc1Nc1nccc(-c2cccnc2)n1
89

# get_value(readout= kinase still bound, per cent of control, system= DDR2 (human) (UniProt Q16832)) for CN(C)C/C=C/C(=O)Nc1cccc(C(=O)Nc2ccc(Nc3nccc(/C(C#N)=C4\Nc5ccccc5S4)n3)cc2)c1
100

###

kinase still bound, per cent of control values by entry
study target: AKT2 (human) (UniProt P31751)
Sequence (P31751 whole entry, looked up): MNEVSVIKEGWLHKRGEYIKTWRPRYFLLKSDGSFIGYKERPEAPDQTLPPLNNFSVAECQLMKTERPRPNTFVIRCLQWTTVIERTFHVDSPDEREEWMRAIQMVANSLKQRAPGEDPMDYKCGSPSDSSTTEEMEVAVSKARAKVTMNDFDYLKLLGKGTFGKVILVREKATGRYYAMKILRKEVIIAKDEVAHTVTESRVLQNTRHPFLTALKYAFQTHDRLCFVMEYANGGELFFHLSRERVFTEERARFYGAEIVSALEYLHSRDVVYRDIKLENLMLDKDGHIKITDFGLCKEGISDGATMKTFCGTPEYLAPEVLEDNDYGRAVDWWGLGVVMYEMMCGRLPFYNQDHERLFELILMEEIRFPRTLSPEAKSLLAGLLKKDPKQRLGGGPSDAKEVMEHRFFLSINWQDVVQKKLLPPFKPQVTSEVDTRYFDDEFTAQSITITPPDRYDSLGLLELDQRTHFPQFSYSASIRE
method notes: KINOMEscan competition binding
experimental context: compound 1.0 µM
Just the number in %, nothing appended.

Worked cases, kinase still bound, per cent of control given:
                               input_smiles  reading_unit  value_measured
0  CN(C)C/C=C/C(=O)Nc1cccc(C(=O)Nc2ccc(Nc3nccc(/C(C#N)=C4\Nc5ccccc5S4)n3)cc2)c1             %             100
1  CN(C)C/C=C/C(=O)Nc1cccc(C(=O)Nc2ccc(Nc3nccc(-c4cccnc4)n3)cc2)c1             %              96
2  Cc1cc(NC(=O)c2cccc(NC(=O)/C=C/CN(C)C)c2)ccc1Nc1nccc(-c2cccnc2)n1             %             100

The record that follows has no kinase still bound, per cent of control shown yet.
Form field: reported kinase still bound, per cent of control of CN(C)C/C=C/C(=O)Nc1cccc(C(=O)Nc2ccc(Nc3nccc(-c4c(-c5ccccc5)nn5ccccc45)n3)cc2)c1
100

###

study target: NTRK1 (human) (UniProt P04629)
Sequence (P04629 whole entry, looked up): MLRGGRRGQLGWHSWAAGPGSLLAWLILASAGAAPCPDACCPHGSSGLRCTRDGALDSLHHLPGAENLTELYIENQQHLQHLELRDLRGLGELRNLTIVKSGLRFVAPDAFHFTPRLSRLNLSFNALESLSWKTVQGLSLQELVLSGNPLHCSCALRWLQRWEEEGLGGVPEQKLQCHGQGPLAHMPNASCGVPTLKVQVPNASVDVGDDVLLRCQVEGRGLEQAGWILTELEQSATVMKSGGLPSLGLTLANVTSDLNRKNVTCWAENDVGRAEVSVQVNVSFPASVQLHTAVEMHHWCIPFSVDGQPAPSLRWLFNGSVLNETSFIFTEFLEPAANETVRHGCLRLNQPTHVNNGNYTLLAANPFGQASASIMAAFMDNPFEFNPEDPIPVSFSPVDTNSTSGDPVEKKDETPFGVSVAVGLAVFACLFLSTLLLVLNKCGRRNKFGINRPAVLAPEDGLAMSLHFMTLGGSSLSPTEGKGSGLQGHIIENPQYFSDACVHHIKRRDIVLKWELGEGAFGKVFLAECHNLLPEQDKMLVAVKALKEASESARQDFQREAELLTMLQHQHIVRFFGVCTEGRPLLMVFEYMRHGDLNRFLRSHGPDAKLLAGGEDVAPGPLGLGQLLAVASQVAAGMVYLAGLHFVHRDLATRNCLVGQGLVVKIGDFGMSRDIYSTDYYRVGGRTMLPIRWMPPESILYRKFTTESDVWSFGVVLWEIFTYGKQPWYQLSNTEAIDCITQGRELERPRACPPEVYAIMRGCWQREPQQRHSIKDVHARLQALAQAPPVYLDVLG
method notes: KINOMEscan competition binding
experimental context: compound 1.0 µM
kinase still bound, per cent of control values by entry
Just the number in %, nothing appended.

In [3]: df
Out[3]:
                               input_smiles  value_measured
0  CN(C)C/C=C/C(=O)Nc1cccc(C(=O)Nc2ccc(Nc3nccc(-c4c(-c5ccccc5)nn5ccccc45)n3)cc2)c1              30
1  CN(C)C/C=C/C(=O)Nc1cccc(C(=O)Nc2ccc(Nc3nccc(/C(C#N)=C4\Nc5ccccc5S4)n3)cc2)c1             100
2  CN(C)C/C=C/C(=O)Nc1cccc(C(=O)Nc2ccc(Nc3nccc(-c4cccnc4)n3)cc2)c1              76

The record that follows has no kinase still bound, per cent of control shown yet.
Form field: reported kinase still bound, per cent of control of Cc1cc(NC(=O)c2cccc(NC(=O)/C=C/CN(C)C)c2)ccc1Nc1nccc(-c2cccnc2)n1
87
